System: ryegrass, Italian (italian ryegrass, Lolium multiflorum)
TEST: Test A postemergence application, visual injury rating 0-100
Type: in vivo
SETTINGS: Postemergence, 16 g ai/ha, greenhouse 10 days; 0 no effect, 100 complete control
Hi there, I'd appreciate the recorded Ryegrass, Italian plant response rating (0 to 100 scale) for every entry that follows.
Field format: numeric only.

q: // query Ryegrass, Italian plant response rating (0 to 100 scale) value for entry COC(=O)C1=CCC(NC(=O)C2(C)CN(c3cc(Cl)c(F)c(Cl)c3)C(=O)O2)C1 (stereo not shown) [Compound 129]
a: 30

q: // query Ryegrass, Italian plant response rating (0 to 100 scale) value for entry C=CC1(C(=O)NC2COC(C(=O)OC)C2)CN(c2cc(F)cc(F)c2)C(=O)O1 (stereo not shown) [Compound 171]
a: 20

q: // query Ryegrass, Italian plant response rating (0 to 100 scale) value for entry CC1(C(=O)NC2CC=C(C(=O)O)C2)CN(c2cc(F)cc(Cl)c2)C(=O)O1 (stereo not shown) [Compound 159]
a: 60

q: // query Ryegrass, Italian plant response rating (0 to 100 scale) value for entry COC(=O)C1C=CC(NC(=O)C2(C)CN(c3cc(F)cc(F)c3)C(=O)O2)C1 (stereo not shown) [Compound 92]
a: 0

---

Hi there, I'd appreciate the recorded Blackgrass plant response rating (0 to 100 scale) for every entry that follows.
Tested on: blackgrass (Alopecurus myosuroides)
TEST: Test A postemergence application, visual injury rating 0-100
Type: in vivo
SETTINGS: Postemergence, 31 g ai/ha, greenhouse 10 days; 0 no effect, 100 complete control
Field format: numeric only.

q: API: value(readout= Blackgrass plant response rating (0 to 100 scale), system= blackgrass (Alopecurus myosuroides), query= CC1(C(=O)NC2C=CC(C(=O)NS(=O)(=O)C3CC3)C2)CN(c2cc(Cl)cc(Cl)c2)C(=O)O1 (centres unmarked) )
a: 60

q: API: value(readout= Blackgrass plant response rating (0 to 100 scale), system= blackgrass (Alopecurus myosuroides), query= CC1(C(=O)NC2C=CC(C(=O)NS(=O)(=O)c3ccccc3)C2)CN(c2cc(Cl)cc(Cl)c2)C(=O)O1 (centres unmarked) )
a: 30

q: API: value(readout= Blackgrass plant response rating (0 to 100 scale), system= blackgrass (Alopecurus myosuroides), query= CCS(=O)(=O)NC(=O)C1C=CC(NC(=O)C2(C)CN(c3cc(F)cc(F)c3)C(=O)O2)C1 (centres unmarked) )
a: 0

q: API: value(readout= Blackgrass plant response rating (0 to 100 scale), system= blackgrass (Alopecurus myosuroides), query= CC1(C(=O)NC2CC=C(C(=O)OCC(F)(F)F)C2)CN(c2cc(Cl)cc(Cl)c2)C(=O)O1 (centres unmarked) )
a: 80

q: API: value(readout= Blackgrass plant response rating (0 to 100 scale), system= blackgrass (Alopecurus myosuroides), query= CC1(C(=O)NC2CC=C(C(=O)NS(=O)(=O)C3CC3)C2)CN(c2cc(Cl)cc(Cl)c2)C(=O)O1 (centres unmarked) )
a: 0

---

Tested on: soybean (Glycine max)
TEST: Test A preemergence soil spray, visual injury rating 0-100
Type: in vivo
SETTINGS: 62 g ai/ha, 10 days, 0 = no effect, 100 = complete control
Hi there, I'd appreciate the recorded Soybean plant response rating (0-100) for every entry that follows.
Field format: numeric only.

q: // query Soybean plant response rating (0-100) value for entry CCOC(=O)C1=CCC(NC(=O)C2(C)CN(c3cc(F)cc(F)c3)C(=O)O2)C1 (centres unmarked)
a: 0

q: // query Soybean plant response rating (0-100) value for entry CCOC(=O)C1=CCC(NC(=O)C2(C)CN(c3cc(F)cc(Cl)c3)C(=O)O2)C1 (centres unmarked)
a: 0

q: // query Soybean plant response rating (0-100) value for entry COC(=O)C1=CCC(NC(=O)C2(C)CN(c3cc(F)cc(Cl)c3)C(=O)O2)C1 (centres unmarked)
a: 80

q: // query Soybean plant response rating (0-100) value for entry COC(=O)C1CC(NC(=O)C2(C)CN(c3cc(F)cc(Cl)c3)C(=O)O2)C1 (centres unmarked)
a: 50

q: // query Soybean plant response rating (0-100) value for entry COC(=O)C1CC(NC(=O)C2(C)CN(c3cc(F)cc(F)c3)C(=O)O2)C1 (centres unmarked) [Compound 130]
a: 40

q: // query Soybean plant response rating (0-100) value for entry CCOC(=O)C1=CCC(NC(=O)C2(C)CN(c3cc(Cl)cc(Cl)c3)C(=O)O2)C1 (centres unmarked) [Compound 114]
a: 10

q: // query Soybean plant response rating (0-100) value for entry CC1(C(=O)NC2CC=C(C(=O)OCC(F)F)C2)CN(c2cc(Cl)cc(Cl)c2)C(=O)O1 (centres unmarked) [Compound 154]
a: 50

q: // query Soybean plant response rating (0-100) value for entry CC1(C(=O)NC2C=CC(C(=O)O)C2)CN(c2cc(Cl)c(F)c(Cl)c2)C(=O)O1 (centres unmarked)
a: 0

q: // query Soybean plant response rating (0-100) value for entry CC1(C(=O)NC2CC=C(C(=O)OCC(F)F)C2)CN(c2cc(Cl)cc(Cl)c2)C(=O)O1 (centres unmarked) [Compound 153]
a: 10

q: // query Soybean plant response rating (0-100) value for entry COC(=O)COC(=O)C1=CCC(NC(=O)C2(C)CN(c3cc(F)cc(F)c3)C(=O)O2)C1 (centres unmarked)
a: 10

q: // query Soybean plant response rating (0-100) value for entry CC(C)OC(=O)C1=CCC(NC(=O)C2(C)CN(c3cc(Cl)cc(Cl)c3)C(=O)O2)C1 (centres unmarked)
a: 0

q: // query Soybean plant response rating (0-100) value for entry CC(C)COC(=O)C1=CCC(NC(=O)C2(C)CN(c3cc(F)cc(Cl)c3)C(=O)O2)C1 (centres unmarked)
a: 0

q: // query Soybean plant response rating (0-100) value for entry COC(=O)C1CC(NC(=O)C2(C)CN(c3cc(F)cc(F)c3)C(=O)O2)C1 (centres unmarked) [Compound 118]
a: 30

q: // query Soybean plant response rating (0-100) value for entry CCOC(=O)C1=CCC(NC(=O)C2(C)CN(c3cc(Cl)cc(Cl)c3)C(=O)O2)C1 (centres unmarked) [Compound 113]
a: 0

q: // query Soybean plant response rating (0-100) value for entry CCOC(=O)C1CC(NC(=O)C2(C)CN(c3cc(F)cc(F)c3)C(=O)O2)C1 (centres unmarked)
a: 0

q: // query Soybean plant response rating (0-100) value for entry COC(=O)C1C=CC(NC(=O)C2(C)CN(c3cc(C)cc(C)c3)C(=O)O2)C1 (centres unmarked)
a: 0

q: // query Soybean plant response rating (0-100) value for entry CC1(C(=O)NC2C=CC(C(=O)NO)C2)CN(c2cc(F)cc(F)c2)C(=O)O1 (centres unmarked)
a: 50
